test system: LTK; conditions: concentration: 1 μM, replicates: in singlicate; n = 1;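 note: KINOMEscan kinase panel screen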
Please use true whenever %Inh is not below 7%, and false whenever it is.

> print(dat)
                                    compound  class.label
 1  Cc1nnc(-c2ccc(C)c(-c3ccc(C(=O)Nc4ccc(NS(C)(=O)=O)cc4)cc3)c2)o1        false
 2  O=C(c1ccc(-c2cc(-c3c[nH]nc3-c3ccccn3)ccn2)cc1)N1CCOCC1        false
 3  CN1c2ccc(CNc3ccc(F)cc3)cc2-c2c(cnn2C)S1(=O)=O        false
 4  Cc1nnc(-c2ccc3ncc(-c4ccc(S(C)=O)cc4)n3c2)o1 (stereo not shown)        false
 5  O=C(Nc1n[nH]c2cc(-c3cccc(F)c3)ccc12)C1CC1        false
 6  Nc1nccc(-c2c(-c3ccc(F)cc3)ncn2C2CCN(CC(F)(F)F)CC2)n1         true
 7  O=C(NCCCN1CCOCC1)c1cccc(Nc2nccc(Nc3ccc(Oc4ccccc4)cc3)n2)c1        false
 8  COc1ccc(COc2cc(-n3cnc4ccccc43)sc2C(N)=O)cc1        false
 9                        CNc1ncnc2[nH]ncc12        false
10  O=C(NOCC1CC1)c1ccc(F)c(F)c1Nc1ccc(I)cc1Cl        false
11   O=c1cc(N2CCOCC2)nc2n(Cc3cccc(F)c3)ccn12         true
12  Fc1ccc(-c2ncn(CCCN3CCOCC3)c2-c2ccccn2)cc1         true
13                        CCn1cnc2c(N)ncnc21         true
14  CCc1nc(-c2cccc(C)c2)c(-c2ccnc(NCc3ccccc3)c2)s1        false
15  Nc1nc(-c2ccc3c(N)n[nH]c3c2)cc(N2CCCC2)n1        false
16  Cl.Nc1ncnc2occ(-c3ccc(NC(=O)Nc4cc(C(F)(F)F)ccc4F)cc3)c12         true
17  Cc1ccc(C(=O)NCC(N)=O)cc1-n1c(C)cc(OCc2ccc(F)cc2F)c(Br)c1=O         true
18  Cn1cc(-c2ccc3c(c2)CCN3C(=O)Cc2ccccc2Cl)c2c(N)ncnc21         true
